Target: T1, DNTTIP1 (TdIF1), His-tagged (human, UniProt Q9H147 1-329)
T1 sequence: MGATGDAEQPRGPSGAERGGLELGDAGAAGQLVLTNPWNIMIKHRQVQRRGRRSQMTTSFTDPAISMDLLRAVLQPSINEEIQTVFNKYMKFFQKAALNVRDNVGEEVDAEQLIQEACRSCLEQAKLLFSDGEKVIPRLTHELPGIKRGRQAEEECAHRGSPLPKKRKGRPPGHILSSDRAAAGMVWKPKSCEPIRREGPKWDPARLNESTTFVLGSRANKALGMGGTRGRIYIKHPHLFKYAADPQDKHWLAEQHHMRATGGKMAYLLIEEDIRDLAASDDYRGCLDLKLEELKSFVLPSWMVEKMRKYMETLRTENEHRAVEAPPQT
Experiment: fluorescence anisotropy; Hill n 1.78; error = fit SE x15; Anisotropy: 15 nM DNA, 10 mM Na-PO4 pH 6.5, 150 mM KCl, 250 uM TCEP, 5% glycerol. Pull-down: 20 mM HEPES pH 7.9, 100 mM KCl, 10% glycerol, 0.05% CHAPS, poly(dIdC), oligo B, acetylated BSA, room temperature
Conditions: protein: recombinant; tags: N-term 6xHis; chain copies: 2; label: fluorescein on first T of sense strand; blunt
Reported endpoint: Kd

// Kd lookup, key: Scr_25 (dsDNA) DNA 1: AGATCAGCAGAGCTCTGGTAGCTAT DNA 2: ATAGCTACCAGAGCTCTGCTGATCT
156 nM

Sourced from paper PMC11115230
